Target: KRas G12V (Homo sapiens, UniProt P01116, G12V);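 note: KRas binding measured by TR-FRET displacement at room temperature, IC50 fitted from percent of control values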
Sequence (P01116 1-169 isoform P01116-2 G12V): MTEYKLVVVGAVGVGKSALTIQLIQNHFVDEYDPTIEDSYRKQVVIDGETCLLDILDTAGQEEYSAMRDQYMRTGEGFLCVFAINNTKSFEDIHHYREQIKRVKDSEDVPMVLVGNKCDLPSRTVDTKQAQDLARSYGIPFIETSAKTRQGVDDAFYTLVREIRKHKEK
Assay: biochemical
pIC50: −log10 of the molar value.

compound	pIC50
CCc1c(F)ccc2cc(O)cc(-c3ncc4c(N5CCCC6(C5)NC(=O)NC6=O)nc(OCC5(CN(C)C)CC5)nc4c3F)c12 (stereo not drawn)	≥ 8.70
O=C1CC2(CCCN(c3nc(OC[C@@]45CCCN4C[C@H](F)C5)nc4c(F)c(-c5cc(O)cc6ccc(F)c(Br)c56)ncc34)C2)N1 (stereo partly drawn)	≥ 8.70
CCc1c(F)ccc2cc(O)cc(-c3ncc4c(N(C)CC5CNS(=O)(=O)N5)nc(OC[C@@]56CCCN5C[C@H](F)C6)nc4c3F)c12 (stereo partly drawn)	≥ 8.70

* * *

Biological target: KRas G12D (Homo sapiens, UniProt P01116, G12D)
Sequence (P01116 1-169 isoform P01116-2 G12D): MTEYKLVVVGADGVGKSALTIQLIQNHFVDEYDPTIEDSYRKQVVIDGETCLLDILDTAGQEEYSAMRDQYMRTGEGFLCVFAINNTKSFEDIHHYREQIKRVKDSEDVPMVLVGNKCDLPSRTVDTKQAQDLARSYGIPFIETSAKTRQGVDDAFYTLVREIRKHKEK
Experiment: biochemical
pIC50: −log10 of the molar value.
Property: pIC50; scope: individual compounds
readout.name: pIC50

compound	readout.name	qualifying.sign	data.value
CCc1c(F)ccc2cc(O)cc(-c3ncc4c(NCC(N)CC(=O)O)nc(OC[C@@]56CCCN5C[C@H](F)C6)nc4c3F)c12 (single isomer, unassigned)	pIC50	≥	8.70
O=S1(=O)CCC(Nc2nc(OCC34CCCN3CCC4)nc3c(F)c(-c4cccc5cccc(F)c45)ncc23)C1 (stereo not drawn)	pIC50	=	4.46
CCc1c(F)ccc2cc(O)cc(-c3ncc4c(N5CCCOC(CO)C5)nc(OC[C@@]56CCCN5C[C@H](F)C6)nc4c3F)c12 (stereo partly drawn)	pIC50	≥	8.70
CCc1c(F)ccc2cc(O)cc(-c3ncc4c(N5CCCC(c6ncn[nH]6)C5)nc(OC[C@@]56CCCN5C[C@H](F)C6)nc4c3F)c12 (stereo partly drawn)	pIC50	=	8.05
CCc1c(F)ccc2cc(O)cc(-c3ncc4c(N5CCCC6(CNC(=O)N6)C5)nc(OC[C@@]56CCCN5C[C@H](F)C6)nc4c3F)c12 (stereo partly drawn)	pIC50	≥	8.70
N#Cc1cccc2cccc(-c3ncc4c(N5CCCC6(C5)NC(=O)NC6=O)nc(OCC56CCCN5CCC6)nc4c3F)c12 (stereo not drawn)	pIC50	=	5.08

* * *

Target: KRas G12D (Homo sapiens, UniProt P01116, G12D)
Assay: biochemical

compound	subject.of.test	IC50
CN(C)C(=O)c1cc2n(n1)CCCN(c1nc(OC[C@@]34CCCN3C[C@H](F)C4)nc3c(F)c(-c4cc(O)cc5ccc(F)c(Br)c45)ncc13)C2	KRas G12D (Homo sapiens, UniProt P01116, G12D)	≤ 2 nM
CCc1c(F)ccc2cc(O)cc(-c3ncc4c(N5CCCC6(CNC6=O)C5)nc(OC[C@@]56CCCN5C[C@H](F)C6)nc4c3F)c12 (stereo partly drawn)	KRas G12D (Homo sapiens, UniProt P01116, G12D)	≤ 2 nM
CCc1c(F)ccc2cc(O)cc(-c3ncc4c(NCc5cc(C(=O)N(C)C)nn5C)nc(OC[C@@]56CCCN5C[C@H](F)C6)nc4c3F)c12	KRas G12D (Homo sapiens, UniProt P01116, G12D)	≤ 2 nM

* * *

Molecular target: KRas G12R (Homo sapiens, UniProt P01116, G12R)
Sequence (P01116 1-169 isoform P01116-2 G12R): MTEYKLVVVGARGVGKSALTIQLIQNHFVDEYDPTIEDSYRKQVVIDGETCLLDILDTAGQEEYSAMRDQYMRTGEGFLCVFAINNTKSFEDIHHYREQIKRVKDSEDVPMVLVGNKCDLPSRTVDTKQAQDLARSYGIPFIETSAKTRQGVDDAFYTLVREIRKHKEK
Assay: biochemical

compound	IC50
Nc1cc2n(n1)CCCN(c1nc(OC[C@@]34CCCN3C[C@H](F)C4)nc3c(F)c(-c4cc(O)cc5ccc(F)c(Cl)c45)ncc13)C2	≤ 2 nM
NS(=O)(=O)CC1CCCN(c2nc(OC[C@@]34CCCN3C[C@H](F)C4)nc3c(F)c(-c4cc(O)cc5ccc(F)c(F)c45)ncc23)C1 (stereo partly shown)	≤ 2 nM
Oc1cc(-c2ncc3c(N4CC5CC(O)C(C5)C4)nc(OC[C@@]45CCCN4C[C@H](F)C5)nc3c2F)c2c(Br)c(F)ccc2c1 (stereo partly shown)	≤ 2 nM
O=C1C[C@]2(CCCN(c3nc(OC[C@@]45CCCN4C[C@H](F)C5)nc4c(F)c(-c5cc(O)cc6ccc(F)c(Cl)c56)ncc34)C2)N1	≤ 2 nM
CCc1c(F)ccc2cc(O)cc(-c3ncc4c(N5CC6CC(O)CC5C6)nc(OC[C@@]56CCCN5C[C@H](F)C6)nc4c3F)c12 (stereo partly shown)	≤ 2 nM
CC1(O)COCCN(c2nc(OC[C@@]34CCCN3C[C@H](F)C4)nc3c(F)c(-c4cc(O)cc5ccc(F)c(Br)c45)ncc23)C1 (stereo partly shown)	≤ 2 nM
CCc1c(F)ccc2cc(O)cc(-c3ncc4c(N5CCCn6nc(C(=O)N(C)C)cc6C5)nc(OC[C@@]56CCCN5C[C@H](F)C6)nc4c3F)c12	≤ 2 nM
CCc1c(F)ccc2cc(O)cc(-c3ncc4c(N5CCCn6nc(C(=O)N(C)C)cc6C5)nc(OCC5(CN(C)C)CC5)nc4c3F)c12	5 nM
C#Cc1c(F)ccc2cc(O)cc(-c3ncc4c(N5CCCC6(CNC6=O)C5)nc(OC[C@@]56CCCN5C[C@H](F)C6)nc4c3F)c12 (stereo partly shown)	3 nM
O=C1NCC12CCCN(c1nc(OC[C@@]34CCCN3C[C@H](F)C4)nc3c(F)c(-c4cc(O)cc5ccc(F)c(Br)c45)ncc13)C2 (stereo partly shown)	11 nM

* * *

System: phospho-ERK in MKN1 (WTdep) cells
Assay: Inhibition of KRas-mediated phosphorylation of ERK (in-cell western)
Format: cell-based
Conditions: Homo sapiens, MKN-1, 3 hours compound, phospho-ERK normalized to GAPDH
Property: log10 IC50; scope: individual compounds
readout.name: log10 IC50 (log10 of the value in nM)

compound	readout.name	data.value
CCc1c(F)ccc2cc(O)cc(-c3ncc4c(N5CCC[C@]6(CC(=O)N6)C5)nc(OC[C@@]56CCCN5C[C@H](F)C6)nc4c3F)c12 (single isomer, unassigned)	log10 IC50	0.85
CCc1c(F)ccc2cc(O)cc(-c3ncc4c(NCc5ncc6cc[nH]c6n5)nc(OC[C@@]56CCCN5C[C@H](F)C6)nc4c3F)c12	log10 IC50	1.65
CCc1c(F)ccc2cc(O)cc(-c3ncc4c(N5CCCn6nc(N)cc6C5)nc(OC[C@@]56CCCN5C[C@H](F)C6)nc4c3F)c12	log10 IC50	1.66
CCc1c(F)ccc2cc(O)cc(-c3ncc4c(NCc5ccc(=O)[nH]c5)nc(OC[C@@]56CCCN5C[C@H](F)C6)nc4c3F)c12	log10 IC50	2.48
CCc1c(F)ccc2cc(O)cc(-c3ncc4c(N5C[C@H](O)C[C@@H](O)C5)nc(OC[C@@]56CCCN5C[C@H](F)C6)nc4c3F)c12	log10 IC50	2.03
CCc1c(F)ccc2cc(O)cc(-c3ncc4c(N5CCOC[C@@](C)(O)C5)nc(OC[C@@]56CCCN5C[C@H](F)C6)nc4c3F)c12	log10 IC50	0.48
CCc1c(F)ccc2cc(O)cc(-c3ncc4c(N5CCC[C@@](C)(O)C5)nc(OC[C@]56CCCN5[C@H](CO)CC6)nc4c3F)c12	log10 IC50	0.70
C#Cc1c(F)ccc2cc(O)cc(-c3ncc4c(N5CCOCC(C)(O)C5)nc(OC[C@@]56CCCN5C[C@H](F)C6)nc4c3F)c12 (stereo partly shown)	log10 IC50	1.20
CCc1c(F)ccc2cc(O)cc(-c3ncc4c(N5C[C@@H]6C[C@H](C5)[C@H](O)C6)nc(OC[C@@]56CCCN5C[C@H](F)C6)nc4c3F)c12 (single isomer, unassigned)	log10 IC50	0.30
CCc1c(F)ccc2cc(O)cc(-c3ncc4c(N5CCCC(c6ncn[nH]6)C5)nc(OC[C@@]56CCCN5C[C@H](F)C6)nc4c3F)c12 (stereo partly shown)	log10 IC50	2.41

* * *

Biological target: KRas G12D (Homo sapiens, UniProt P01116, G12D);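 note: TR-FRET displacement binding assay on KRas, read after a one-hour incubation at room temperature, IC50 fitted from percent-of-control values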
Test: biochemical

compound	subject.of.test	IC50
CCc1c(F)ccc2cc(O)cc(-c3ncc4c(N5CCCC6(CNS(=O)(=O)N6)C5)nc(OCC5(CN(C)C)CC5)nc4c3F)c12 (stereo not drawn)	KRas G12D (Homo sapiens, UniProt P01116, G12D)	≤ 2 nM
CCc1c(F)ccc2cc(O)cc(-c3ncc4c(N5CCCC6(CC(=O)N6)C5)nc(OC[C@@]56CCCN5C[C@H](F)C6)nc4c3F)c12 (stereo partly drawn)	KRas G12D (Homo sapiens, UniProt P01116, G12D)	≤ 2 nM
Fc1c(-c2cccc3cccc(F)c23)ncc2c(NCCNc3cccnc3)nc(OCC34CCCN3CCC4)nc12	KRas G12D (Homo sapiens, UniProt P01116, G12D)	≥ 100000 nM

* * *

Biological target: KRas G12R (Homo sapiens, UniProt P01116, G12R);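 note: TR-FRET displacement assay of compound binding to KRas, read after one hour at room temperature, potency from a four-parameter fit of percent-of-control values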
Test: biochemical
Property: IC50; scope: individual molecules
readout.name: IC50 (nM)

molecule	unit.abbreviation	qualifying.sign	data.value
C#Cc1c(F)ccc2cc(O)cc(-c3ncc4c(N5CCC[C@@](C)(O)C5)nc(OC[C@@]56CCCN5C[C@H](F)C6)nc4c3F)c12 [Example 13]	nM	≤	2
C#Cc1c(F)ccc2cc(O)cc(-c3ncc4c(N5CCCC6(C5)NC(=O)NC6=O)nc(OC[C@@]56CCCN5C[C@H](F)C6)nc4c3F)c12 (stereo partly shown) [Example 397]	nM	≤	2
O=C1NC(=O)C2CN(c3nc(OCC45CCCN4CCC5)nc4c(F)c(-c5cc(O)cc(Cl)c5C5CC5)ncc34)CC12 (stereo not shown) [Example 519]	nM	≤	2
CCc1c(F)ccc2cc(O)cc(-c3ncc4c(N5CCOCC6(COC6)C5)nc(OC[C@@]56CCCN5C[C@H](F)C6)nc4c3F)c12 [Example 480]	nM	=	6
O=C1CCC2(CCCN(c3nc(OCC45CCCN4CCC5)nc4c(F)c(-c5cccc6cccc(F)c56)ncc34)C2)C1 (stereo not shown) [Example 46]	nM	=	22500
CC1(O)COCCN(c2nc(OC[C@@]34CCCN3C[C@H](F)C4)nc3c(F)c(-c4cc(O)cc5ccc(F)c(Cl)c45)ncc23)C1 (stereo partly shown) [Example 419]	nM	=	8
CCc1c(F)ccc2cc(O)cc(-c3ncc4c(N5CCCc6nn(C(=O)N(C)C)cc6C5)nc(OC[C@@]56CCCN5C[C@H](F)C6)nc4c3F)c12 [Example 353]	nM	≤	2
CCc1c(F)ccc2cc(O)cc(-c3ncc4c(N5CCC[C@]6(C5)C[C@@](C)(O)C6)nc(OCC56CCCN5CCC6)nc4c3F)c12 [Example 329]	nM	=	3380
CCc1c(F)ccc2cc(O)cc(-c3ncc4c(N5CCCn6nc(C(=O)NC)cc6C5)nc(OC[C@@]56CCCN5C[C@H](F)C6)nc4c3F)c12 [Example 339]	nM	≤	2
Fc1c(-c2cccc3cccc(F)c23)ncc2c(N3CCCn4nccc4C3)nc(OCC34CCCN3CCC4)nc12 [Example 245]	nM	=	9830
O=C1NC(=O)C2(CCCCN(c3nc(OCC45CCCN4CCC5)nc4c(F)c(-c5cccc6cccc(F)c56)ncc34)C2)N1 (stereo not shown) [Example 267]	nM	=	1720
CCc1c(F)ccc2cc(O)cc(-c3ncc4c(NCCC5CNC(=O)N5)nc(OC[C@@]56CCCN5C[C@H](F)C6)nc4c3F)c12 (stereo partly shown) [Example 382]	nM	=	3
Fc1c(-c2cccc3cccc(Cl)c23)ncc2c(N3CCCC(n4cccn4)C3)nc(OCC34CCCN3CCC4)nc12 (stereo not shown) [Example 109]	nM	=	4110
CCc1c(F)ccc2cc(O)cc(-c3ncc4c(N5C[C@H](O)CC[C@@H](O)C5)nc(OC[C@@]56CCCN5C[C@H](F)C6)nc4c3F)c12 [Example 490]	nM	=	3
CCc1cccc2cccc(-c3ncc4c(N5CCOCC(CO)C5)nc(OCC56CCCN5CCC6)nc4c3F)c12 (stereo not shown) [Example 289]	nM	=	754
Fc1c(-c2cccc3cccc(F)c23)ncc2c(NCc3nnc4ncccn34)nc(OCC34CCCN3CCC4)nc12 [Example 121]	nM	=	12300
CCc1c(F)ccc2cc(O)cc(-c3ncc4c(N5CCCC(C(N)=O)C5)nc(OC[C@@]56CCCN5C[C@H](F)C6)nc4c3F)c12 (stereo partly shown) [Example 147]	nM	=	3
CC(=O)Nc1cc2n(n1)CCCN(c1nc(OCC34CCCN3CCC4)nc3c(F)c(-c4cccc5cccc(F)c45)ncc13)C2 [Example 275]	nM	=	7160
CCc1c(F)ccc2cc(O)cc(-c3ncc4c(N5CCCCC5)nc(OC[C@@]56CCCN5C[C@H](O)C6)nc4c3F)c12 [Example 7]	nM	≤	2
O=S1(=O)NCC2(CCCN(c3nc(OCC45CCCN4CCC5)nc4c(F)c(-c5cccc6cccc(F)c56)ncc34)C2)N1 (stereo not shown) [Example 252]	nM	=	27
CCc1c(F)ccc2cc(O)cc(-c3ncc4c(NCC5CS(=O)(=O)C5)nc(OC[C@@]56CCCN5C[C@H](F)C6)nc4c3F)c12 [Example 177]	nM	≤	2
CCc1c(F)ccc2cc(O)cc(-c3ncc4c(N5CCOCC(CO)C5)nc(OC[C@@]56CCCN5C[C@H](F)C6)nc4c3F)c12 (stereo partly shown) [Example 74]	nM	=	3

Reference source for all entries: patent US12398154B2
